Cited source for all entries: ChEMBL document CHEMBL4665667

test: Intrinsic clearance in human hepatocytes assessed per 10^6 cells; format: ADME, cell-based, Hepatocyte; settings: read-out: CLH

# query smiles, hepatocyte CLint
records = [
    ("c1nc(N[C@H]2CC[C@H](N3CC4(COC4)C3)CC2)c2c(C3CCOCC3)c[nH]c2n1", "< 1 µL/min/1e6 cells"),
]

----------
target: Glucose-dependent insulinotropic receptor (Homo sapiens, UniProt Q8TDV5); test: Agonist activity at human GPR119 expressed in HEK293 cells assessed as increase in cAMP level incubated for 45 mins by cAMP HTRF assay
Sequence (Q8TDV5 whole entry): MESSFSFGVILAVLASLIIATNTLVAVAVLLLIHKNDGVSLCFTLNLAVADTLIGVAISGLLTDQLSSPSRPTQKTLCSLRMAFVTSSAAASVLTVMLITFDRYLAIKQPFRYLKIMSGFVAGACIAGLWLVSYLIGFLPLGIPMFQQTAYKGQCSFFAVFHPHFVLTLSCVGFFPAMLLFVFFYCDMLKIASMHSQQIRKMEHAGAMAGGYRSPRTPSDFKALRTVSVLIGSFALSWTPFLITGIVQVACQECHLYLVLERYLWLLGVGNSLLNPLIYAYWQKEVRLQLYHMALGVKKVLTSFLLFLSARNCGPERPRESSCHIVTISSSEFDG
pEC50: −log10 of the molar value.
reported metric: pEC50

# query smiles, target of assay, reported
rows = [
    ("CC(C)(C)OC(=O)N1CC2(C1)CN(c1ncc(OCc3ccncc3C#N)cn1)C2", "Glucose-dependent insulinotropic receptor (Homo sapiens, UniProt Q8TDV5)", 4.80),
]

----------
assay: Intrinsic clearance in human liver microsomes; assay type: ADME, Microsome; settings: read-out: CLH

# query smiles, microsomal CLint
rows = [
    ("c1nc(N[C@H]2CC[C@H](N3CC4(COC4)C3)CC2)c2c(C3CCOCC3)c[nH]c2n1", "< 3 µL/min/mg"),
]

----------
assay: Intrinsic clearance in rat hepatocytes assessed per 10^6 cells; assay type: ADME, cell-based, Hepatocyte; conditions: read-out: CLH

# query smiles, hepatocyte CLint [µL/min/1e6 cells]
measured = [
    ("c1nc(N[C@H]2CC[C@H](N3CC4(COC4)C3)CC2)c2c(C3CCOCC3)c[nH]c2n1", 8),
]

----------
assay: Lipophilicity, logD of compound at pH 7.4 by Shake-flask distribution coefficient method; assay type: physicochemical; conditions: octanol/water

# query smiles, logD
data = [
    ("c1nc(N[C@H]2CC[C@H](N3CC4(COC4)C3)CC2)c2c(C3CCOCC3)c[nH]c2n1", 0.8),
]
